B1: Protein piccolo, residues 1058 to 1114; numbered along this chain, Q9Y6V0 (parent)
chain: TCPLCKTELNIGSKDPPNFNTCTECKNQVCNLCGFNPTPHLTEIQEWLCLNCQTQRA

variants of: B1; test: abundance fitness (aPCA) (normalised: wild type 0, dead -1); higher = more abundant; growth selection in yeast, the domain comes from the species named; details: Homo sapiens
# label = bin(measured abundance fitness), where bins are low band = under -0.07, middle band = from -0.07 up to 0.04, high band = 0.04 and over

In [3]: df
Out[3]:
   mutation_id        label
0         E46K     low band
1         P16Y  middle band
2         K26P     low band
3         N27W    high band

Which class is correct for the following variant? N27C
high band

Which class is correct for the following variant? I44G
middle band

Which class is correct for the following variant? N18K
middle band

Which class is correct for the following variant? I11N
middle band

Which class is correct for the following variant? E24V
middle band

Which class is correct for the following variant? C22T
low band

Which class is correct for the following variant? S13Q
high band
